Test system: CCRIS mutagenicity, Ames/micronucleus/aberration tests
Assay: CCRIS mutagenicity studies
Conditions: Test System: AMES SALMONELLA TYPHIMURIUM; Strain/Indicator: TA104; Metabolic Activation: RAT, LIVER, S-9, AROCLOR 1254; Method: STANDARD PLATE
The source made the active and inactive calls. The rule behind the calls is not given here.
Possible outcomes: active, inactive

structure_string=CN1CCCC1=O qualitative_label=inactive
structure_string=Oc1cc(Cl)c(Cl)cc1Cl qualitative_label=inactive
structure_string=CC(C)CCC[C@@H](C)[C@H]1CC[C@H]2[C@@H]3CC=C4CCCC[C@]4(C)[C@H]3CC[C@]12C qualitative_label=inactive
structure_string=BrC(Br)C(Br)Br qualitative_label=active
structure_string=CN(C)CCN(Cc1cccs1)c1ccccn1 qualitative_label=inactive
